For each of the molecules below, state its melting point.

Completed entries (count: 6):
Request the reported melting point associated with Cc1ccc(S(=O)(=O)N(c2ccc([N+](=O)[O-])cc2Cl)C(C)C)cc1 154 to 157 °C

Then what about the molecule Brc1ccc(N2CCN(CCCOc3ccc(C4=NCCO4)cc3)CC2)nn1 ? 169 °C

Then what about the molecule COc1cccc(CC(NC(C)=O)C(=O)O)c1OCc1ccccc1 (racemic) ? 169 to 170 °C

Then what about the molecule O=C1C=C(NC(=O)C(=O)c2cn(Cc3ccc(Cl)cc3)c3ccccc23)CS1 ? 248 to 250 °C

Then what about the molecule CCOC(=O)C1=C(C)NC(COC)=C(C(=O)OCC)C1c1ccc(S(C)(=O)=O)cc1 (centres undefined) ? 156 to 158 °C

Then what about the molecule Nc1nc(N)nc(-c2ccc(Oc3ccccc3)cc2)n1 ? 198 to 200 °C

// for each molecule below, give its melting point
1. CC(=O)OC1CSC(Sc2ccc(C#N)cc2C#N)C(OC(C)=O)C1OC(C)=O (centres undefined)
2. C#CCOc1cc(OCC=C)ccc1-c1nc2cnncc2[nH]1
3. CCOc1ccc(-c2ccc3c(c2)C=C(C(=O)Nc2ccc(CN(C)C4CCC(=O)CC4)cc2)CCO3)cc1
4. CCCCCCCCCCCCc1ccsc1-c1ccc2c(c1)c(=O)c1cc3c(cc12)c(=O)c1cc(-c2sccc2CCCCCCCCCCCC)ccc13

228 °C
265 °C
146 to 148 °C
152 to 153 °C

// for each molecule below, give its melting point
1. CCOC(=O)COc1cc(F)c(-c2ncnc(C(F)(F)F)c2Cl)cc1[N+](=O)[O-]
2. Cc1nc(Cl)c2c(c1O)COC2(c1ccccc1)c1ccccc1
3. COc1cc(Nc2c(C#N)cnc3cc(I)sc23)cc(OC)c1OC
4. CCOC(=O)[C@H]1O[C@@H]1[C@H](Cc1ccccc1)NC(=O)OC(C)(C)C

["127 to 129 °C", "240 °C", "254 to 256 °C", "55 to 61 °C"]

* * *

For each of the molecules below, state its melting point.

Request the reported melting point associated with O=C(Nc1ccccc1)Nc1ccccn1 186 to 188 °C

// for each molecule below, give its melting point
1. CC(=S)OCc1ccc([N+](=O)[O-])cc1
2. CCOC(=O)c1ccc(Cl)nn1
3. Cn1cncc1COc1nn2c(-c3ccccc3)nnc2cc1-c1ccccc1
4. CCOc1cccc(C2NC(C(=O)O)CS2)c1OCCO[N+](=O)[O-] (stereo unspecified)
5. CN(C)S(=O)(=O)Nc1cc(C(=O)c2ccccc2)ccc1N

1. 55.5 to 57.5 °C
2. 145 to 150 °C
3. 195 to 196 °C
4. 124 to 125 °C
5. 147 to 149 °C

* * *

For each of the compounds below, state its melting point.

Completed entries (count: 4):
Request the reported melting point associated with CC(C)c1cccc(C(C)C)c1NC(=O)CO 164 to 166 °C

Then what about the compound Cc1cccc(CC(=O)c2ccnc(-c3ccc(OCC(N)=O)cc3)c2)n1 ? 168 °C

Then what about the compound COC(=O)c1ccc2ncc(C3CCN(C)CC3)c-2[nH]1 ? 200 to 201 °C

Then what about the compound CCOC(=O)c1c(CS(=O)c2nccn2C)nc2cc(OC)c(OC)cc2c1-c1ccc(OC)c(OC)c1 (stereo not given) ? 193 to 194 °C

Next compound, please.
Request the reported melting point associated with O=C(O)Cc1cc(C(=O)c2cccc(C(=O)O)c2)ccc1O > 260 °C

Origin of measurements: a melting point compilation (Tetko et al.; mined from patent text by program, amines drawn as free bases though some values may be those of a salt)
